assay: Toxicity liver stage against HepG2, at 10uM; assay type: cell-based; parameters: test concentration 10 uM, cell line HepG2-A16-CD81EGFP; settings: human, HepG2-A16-CD81EGFP cells; read-out: INHIBITION
REPORTED_ENDPOINT: cytotoxicity at 10 µM (%)
Give bare numbers, in %.

Example compounds with recorded cytotoxicity at 10 µM:
> print(dat)
                                   compound  units.of.measure  result.number
1  CCc1n[nH]c(C2CN(C(=O)CCc3cccs3)CCO2)n1 (centres undefined)                 %           5.73
2  Cn1nnnc1SCCNC(=O)CC1CCc2ccccc21 (centres undefined)                 %          -2.49
3  Cc1cc(C(N)=O)c(N2C[C@@H](C)[C@@](C)(O)C2)nc1C                 %          -9.14

// each listed compound needs a value for cytotoxicity at 10 µM
1. Cn1cc(C(NCCc2ccccn2)c2cccc(F)c2)cn1 (centres undefined)
2. CC(=O)N1CCCC2(CCN(Cc3ccc(Cl)c(C(F)(F)F)c3)C2)C1 (centres undefined)

[9.73, 11.9]

// each listed compound needs a value for cytotoxicity at 10 µM
1. CC(C)c1ccnc(N[C@H]2COC[C@@H]2N2CCCC2)n1
2. Cc1cc(C(=O)NC(CC(C)C)C(=O)Nc2cc[nH]n2)c(C)o1 (centres undefined)
3. Cc1ccc(N2CCCC3(CCN(C(=O)NC4CCCC4)C3)C2)nn1 (centres undefined)
4. CCSc1ncc(-c2cc(C3CC3)nc(N)c2C#N)cn1

-4.48
-11.7
-114
6.99

###

experiment: Toxicity liver stage against HepG2, at 10uM; assay type: cell-based; parameters: test concentration 10 uM, cell line HepG2-A16-CD81EGFP; conditions: human, HepG2-A16-CD81EGFP cells; read-out: INHIBITION
REPORTED_ENDPOINT: cytotoxicity at 10 µM (%)
One number for each entry, in %.

Example molecules with recorded cytotoxicity at 10 µM:
> print(dat)
                                   molecule  result.number
1  CN(Cc1ccco1)C1CCC12CCN(C(=O)c1ccnnc1)CC2 (stereo unspecified)          0.081
2       Cn1cc(C(=O)N2CCOc3cc(F)ccc32)ccc1=O          -2.55
3  N#Cc1cc2c(=O)n(CC(O)c3cccc(O)c3)ccc2[nH]c1=O (stereo unspecified)           2.86
4        CSc1nc2ccsc2c(=O)n1CC(=O)NC1CCCCC1           4.45
5  O=C(O)C[C@@H]1CCN(C(=O)C2CCCC2)C[C@@H]1CCN1CCCCC1          -6.51

Now examine the next entry.
What does the data say about its cytotoxicity at 10 µM? Entry: NC(=O)CN1CCC(c2cccc(Oc3ccccc3)n2)CC1 -4.72

###

test: Toxicity liver stage against HepG2, at 10uM; type: cell-based; parameters: test concentration 10 uM, cell line HepG2-A16-CD81EGFP; settings: human, HepG2-A16-CD81EGFP cells; read-out: INHIBITION
Please go through the items and note down their cytotoxicity at 10 µM.
Give bare numbers, in %.

Example compounds with recorded cytotoxicity at 10 µM:
> print(dat)
                                   compound      reported.endpoint  result.number
1  O=C(CCn1cncn1)N1C[C@@H]2CC[C@H]1CN(Cc1cccnc1)C2  cytotoxicity at 10 µM           7.39
2       CC(C)NC(=O)c1nc2c(s1)CCCN2Cc1ccccc1  cytotoxicity at 10 µM           18.3
3  Cc1ccsc1C(O)CNS(=O)(=O)Cc1ccc(F)cc1 (centres undefined)  cytotoxicity at 10 µM          -4.38

Now examine the next entry.
What does the data say about its cytotoxicity at 10 µM? Entry: CCSCCC(C)N(C)C(=O)c1cc(C)on1 (centres undefined) -7.32

###

Please go through the items and note down their cytotoxicity at 10 µM.
experiment: Toxicity liver stage against HepG2, at 10uM; assay type: cell-based; design: test concentration 10 uM, cell line HepG2-A16-CD81EGFP; conditions: human, HepG2-A16-CD81EGFP cells; read-out: INHIBITION
One number for each entry, in %.

> print(dat)
                                   compound      reported.endpoint  units.of.measure  result.number
1     Cc1nnc2n1CCN(C(=O)c1cc(Cl)c(Cl)n1C)C2  cytotoxicity at 10 µM                 %          -4.05
2  COCCn1/c(=N\C(=O)CN(C)S(C)(=O)=O)sc2cc(Cl)ccc21  cytotoxicity at 10 µM                 %          -13.7
3  CCn1ncc2c1CCCC2NCc1ccc2c(c1)OCCO2 (centres undefined)  cytotoxicity at 10 µM                 %          -9.12
4  CN(C)C(=O)CN1CCC2(CCCN(Cc3ccsc3)C2)C1=O (centres undefined)  cytotoxicity at 10 µM                 %           -106
5  O=C1CC(c2ccccc2)C2(CCN(Cc3ccncc3)CC2)N1 (centres undefined)  cytotoxicity at 10 µM                 %          -4.72
6     Cc1ccc(S(=O)(=O)c2ncccc2CN2CCOCC2)cc1  cytotoxicity at 10 µM                 %            -41
7            CNC(=O)CCc1cc(C2CCNCC2)nc(C)n1  cytotoxicity at 10 µM                 %          -6.41
8  CCCC(O)CN1CCC(=O)N(C)Cc2cc(F)ccc21 (centres undefined)  cytotoxicity at 10 µM                 %           -124

// each listed compound needs a value for cytotoxicity at 10 µM
1. CCN(CC)C(=O)c1cc(C2(C)CCN(C(C)=O)CC2)nc(C)n1
2. CNC(=O)CC1COCCN1C(=O)C1(c2ccc(Cl)cc2)CCC1 (centres undefined)
3. CC1(NC(=O)Cc2csc(-c3cccc(Cl)c3)n2)CCS(=O)(=O)C1 (centres undefined)

1. 5.27
2. 5.33
3. -3.61

###

Please go through the items and note down their cytotoxicity at 10 µM.
experiment: Toxicity liver stage against HepG2, at 10uM; assay type: cell-based; set-up: test concentration 10 uM, cell line HepG2-A16-CD81EGFP; details: human, HepG2-A16-CD81EGFP cells; read-out: INHIBITION

> print(dat)
                                   compound      reported.endpoint   result
1  Cc1ccccc1NC(=O)N1CC[C@@H]2CN(CC(C)C)S(=O)(=O)[C@@H]2CC1  cytotoxicity at 10 µM  -0.567%
2  Cc1noc([C@@H]2C[C@H]3OCC[C@H]3N(Cc3ccoc3)C2)n1  cytotoxicity at 10 µM   -71.4%

// each listed compound needs a value for cytotoxicity at 10 µM
1. CN1CC2(CCN(Cc3ccoc3)CC2)COc2ccccc2S1(=O)=O
2. Oc1nc(N2CCCC2)nc2nccc(-c3ccccn3)c12
3. O=C(OCC1CCN(c2ccccc2)C1)c1cscn1 (stereo not given)

1: -1.48%; 2: 1.36%; 3: 1.27%

###

experiment: Toxicity liver stage against HepG2, at 10uM; format: cell-based; design: test concentration 10 uM, cell line HepG2-A16-CD81EGFP; settings: human, HepG2-A16-CD81EGFP cells; read-out: INHIBITION
REPORTED_ENDPOINT: cytotoxicity at 10 µM (%)
Give bare numbers, in %.

Example molecules with recorded cytotoxicity at 10 µM:
> print(dat)
                                 molecule  units.of.measure  result.number
1  COCc1ncn2c1CN(S(=O)(=O)c1ccc(C)cc1)CC2                 %          -1.18
2      Cc1nc2sccn2c1C(=O)N1CCc2[nH]cnc2C1                 %          -6.11
3         c1cncc(CNc2ccccc2-c2nn[nH]n2)c1                 %           9.35

// each listed molecule needs a value for cytotoxicity at 10 µM
1. CC(C)Nc1nc2c(c(NC3CC3)n1)CCN(C1CCOCC1)CC2
2. Cc1nc(CN2CCC(N(C)Cc3nnc(C4CC4)n3C)C2)oc1C (stereo not drawn)
3. Cc1cccc(S(=O)(=O)N2Cc3nccn3CC(CN(C)C)C2)c1 (stereo not drawn)
4. CC(O)CN1CCN(C(=O)c2cc3ccccc3c(=O)[nH]2)CC1 (stereo not drawn)

12.3
-16.1
-105
-2.64
